Quick reference for IC50 among some compounds
Biological target: Genome polyprotein (dengue virus type 2)
Sequence (P29990 2492-3391 limits assumed): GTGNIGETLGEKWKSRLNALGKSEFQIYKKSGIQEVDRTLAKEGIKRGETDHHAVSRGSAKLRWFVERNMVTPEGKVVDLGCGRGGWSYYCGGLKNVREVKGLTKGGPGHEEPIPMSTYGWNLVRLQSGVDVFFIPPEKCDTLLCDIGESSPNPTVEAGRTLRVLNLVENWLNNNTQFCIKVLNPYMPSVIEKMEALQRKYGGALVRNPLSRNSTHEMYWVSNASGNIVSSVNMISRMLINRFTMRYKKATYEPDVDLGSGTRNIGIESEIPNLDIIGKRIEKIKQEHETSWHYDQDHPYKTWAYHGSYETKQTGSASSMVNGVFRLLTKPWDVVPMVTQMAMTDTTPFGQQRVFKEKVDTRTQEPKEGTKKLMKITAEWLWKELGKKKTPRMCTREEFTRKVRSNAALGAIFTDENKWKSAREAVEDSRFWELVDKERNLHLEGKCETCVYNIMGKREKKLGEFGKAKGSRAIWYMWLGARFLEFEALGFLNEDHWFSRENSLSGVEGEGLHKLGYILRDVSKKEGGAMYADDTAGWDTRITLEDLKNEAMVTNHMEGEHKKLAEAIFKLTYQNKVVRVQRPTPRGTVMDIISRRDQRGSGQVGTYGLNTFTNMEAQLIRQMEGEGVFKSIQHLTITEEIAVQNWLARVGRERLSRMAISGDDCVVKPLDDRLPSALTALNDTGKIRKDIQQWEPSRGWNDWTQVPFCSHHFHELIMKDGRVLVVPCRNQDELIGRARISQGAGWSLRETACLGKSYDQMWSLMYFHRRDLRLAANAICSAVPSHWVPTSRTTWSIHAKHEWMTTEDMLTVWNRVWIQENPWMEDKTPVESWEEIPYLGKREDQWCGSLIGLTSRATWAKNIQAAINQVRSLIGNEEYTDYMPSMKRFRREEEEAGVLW
Experiment: flavivirus cap methylation enzyme inhibition – biochemical, confirmation dose response, primary screen (AID 588689)
Type: functional
Activity calls are given as the source filed them.

Guide cases for IC50, answers given:
Cc1nn2c(O)cc(-c3ccc([N+](=O)[O-])cc3)nc2c1-c1ccccc1	36.5 µM (active)
Cc1[nH]n(-c2ccccc2)c(=O)c1C(c1ccc(O)c([N+](=O)[O-])c1)c1c(C)[nH]n(-c2ccccc2)c1=O	28.7 µM (active)
Cc1sc(NC(=O)C2CCCCC2C(=O)O)c(C(N)=O)c1-c1ccc(C(C)C)cc1 (configuration not stated)	62.7 µM (active)
O=S(=O)([O-])CCC[n+]1c(SCCCS(=O)(=O)O)sc2ccc(Cl)cc21	> 100 µM (active)
Oc1ccc(N=Nc2ccccc2-c2nn[nH]n2)c(O)c1	> 100 µM (active)
O=c1c(O)cccc2cc(O)c(O)c(O)c12	12.2 µM (active)
O=C(O)c1cccc(Nc2nc3ccccc3nc2NS(=O)(=O)c2cccs2)c1	66.3 µM (active)
CS(=O)(=O)c1ncc(Cl)c(C(=O)Nc2ccc(N3CCOCC3)cc2)n1	> 100 µM (active)
COc1ccc(-c2csc(NC(=O)c3ccccc3Br)c2C(=O)O)cc1	74.4 µM (active)
O=C(O)/C(=C\c1ccc(Cl)c([N+](=O)[O-])c1)c1ccc(S(=O)(=O)N2CCCCC2)s1	81.4 µM (active)

Input: Tell me its IC50 given `COc1ccc(C(=O)c2coc3c2C(=O)C(=O)c2ccccc2-3)cc1` as the entry.
Output: 34.5 µM (active)

Input: Tell me its IC50 given `O=C(c1ccccc1NS(=O)(=O)c1ccc([N+](=O)[O-])cc1[N+](=O)[O-])N1O[C@@H]2C=C[C@H]1C2` as the entry.
Output: 45.4 µM (active)

###

Quick reference for IC50 among some compounds
Biological target: Dual specificity protein phosphatase 3 (Homo sapiens)
Sequence (P51452 whole entry): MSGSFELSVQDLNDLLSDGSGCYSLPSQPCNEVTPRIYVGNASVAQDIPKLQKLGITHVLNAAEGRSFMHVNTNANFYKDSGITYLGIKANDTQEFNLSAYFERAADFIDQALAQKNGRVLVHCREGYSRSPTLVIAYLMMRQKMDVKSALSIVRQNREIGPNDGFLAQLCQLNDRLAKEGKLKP
Assay: VHR phosphatase inhibition, dose response, selectivity assay for STEP inhibitor project, biochemical (AID 602374)
Assay type: functional
Details: read-out: IC50_Mean
Active and inactive are the calls of the source.

Input: Report value only: IC50, Dual specificity protein phosphatase 3 (Homo sapiens), `CN1CCN(C(=S)C(=O)Nc2ccc(Br)cc2)CC1`
Output: 386 nM (active)

Input: Report value only: IC50, Dual specificity protein phosphatase 3 (Homo sapiens), `COc1ccc(NC(=S)N(CCC(C)C)C2CCN(C(C)C)CC2)cc1Cl`
Output: 271 nM (active)

Input: Report value only: IC50, Dual specificity protein phosphatase 3 (Homo sapiens), `Cn1c(=O)[nH]c(=O)c2c1nc(SCCN1CCCCC1)n2CCCc1ccccc1`
Output: 570 nM (active)

Input: Report value only: IC50, Dual specificity protein phosphatase 3 (Homo sapiens), O=C(NCCCn1ccnc1)C(Cc1ccccc1)N1C(=O)c2ccccc2C1=O (centres undefined)
Output: 3080 nM (active)

###

# AC50 per entry for Cytochrome P450 3A4 (Homo sapiens, UniProt P08684)

COc1ccccc1-c1nccc(NCc2cnc(C)cn2)n1	39.8 µM (inconclusive)
Cc1ccc(CCN2CC(C(=O)N3CCC4(CC3)OCCO4)CC2=O)cc1 (configuration not stated)	17.8 µM (inconclusive)
Cc1ccccc1NS(=O)(=O)c1ccc2ncc(C(=O)N(C)Cc3ccco3)c(O)c2c1	0.794 µM (inconclusive)
O=C1[C@H]2[C@H]3[C@H](O)[C@H](O)C/C(=N/OC[C@@H](O)COCc4ccco4)[C@H]3CC[C@@H]2C(=O)N1C1CCCCC1	3.98 µM (inconclusive)
Cc1ccc(/N=C/c2cc(C)n(C3CCCC3)c2C)cc1	20 µM (inconclusive)
COc1ccc(NC(=O)CSc2nncn2C)c([N+](=O)[O-])c1	22.4 µM (inconclusive)

Input: Report value only: AC50, Cytochrome P450 3A4 (Homo sapiens, UniProt P08684), `Cc1cccc(NC(=S)c2nc3ccccc3s2)c1`
Output: 3.98 µM (inconclusive)

Input: Report value only: AC50, Cytochrome P450 3A4 (Homo sapiens, UniProt P08684), CCC12C=CCN3CCC4(c5cc(Br)c(OC)cc5N(C)C4C(O)(C(=O)OC)C1OC(C)=O)C32 (configuration not stated)
Output: 39.8 µM (inconclusive)

Input: Report value only: AC50, Cytochrome P450 3A4 (Homo sapiens, UniProt P08684), `CCOC(=O)N1CCN(S(=O)(=O)c2ccc(C(=O)Nc3ccc(F)cc3F)cc2)CC1`
Output: 14.1 µM (inconclusive)

Input: Report value only: AC50, Cytochrome P450 3A4 (Homo sapiens, UniProt P08684), `CN1CCN(c2ncc3nc(-c4cccs4)c(=O)n(C[C@H]4CCCO4)c3n2)CC1`
Output: 10 µM (inconclusive)

Input: Report value only: AC50, Cytochrome P450 3A4 (Homo sapiens, UniProt P08684), `CC(C)Sc1cc(N2CCOCC2)nc(-c2ccc(Cl)cc2)n1`
Output: 17.8 µM (inconclusive)

Input: Report value only: AC50, Cytochrome P450 3A4 (Homo sapiens, UniProt P08684), `COc1ccc(/C=N/NC(=O)CCc2ccccc2)cc1O`
Output: 22.4 µM (inconclusive)

Input: Report value only: AC50, Cytochrome P450 3A4 (Homo sapiens, UniProt P08684), `Cl/C(=N\c1cccc2ccccc12)N(c1ccccc1)c1ccccc1`
Output: 3.98 µM (inconclusive)

Input: Report value only: AC50, Cytochrome P450 3A4 (Homo sapiens, UniProt P08684), `N#Cc1c(-c2ccccc2)cc(-c2ccccc2)nc1SCc1nnc(-c2ccccc2)o1`
Output: 7.08 µM (inconclusive)

Input: Report value only: AC50, Cytochrome P450 3A4 (Homo sapiens, UniProt P08684), `NNC(=O)c1nn(-c2ccc(Cl)cc2)ccc1=O`
Output: 25.1 µM (inconclusive)

Input: Report value only: AC50, Cytochrome P450 3A4 (Homo sapiens, UniProt P08684), `CO/N=C/C(=C\Nc1ccccc1)c1ncc(C(F)(F)F)cc1Cl`
Output: 22.4 µM (inconclusive)

Input: Report value only: AC50, Cytochrome P450 3A4 (Homo sapiens, UniProt P08684), CC1CCCC(NC(=O)C2CCN(S(=O)(=O)N3CCC4(CC3)OCCO4)CC2)C1C (configuration not stated)
Output: 14.1 µM (inconclusive)
